target: recombinant soluble homotrimeric HA of A/California/4/09 (H1N1) (Influenza A virus A/California/04/2009(H1N1)); test: HA microarray, BCC supernatant; settings: remark: other sources report otherwise
value_type: Trimeric HA Binding: RLU (RLU)
// return numeric value only (unit: RLU, not printed)

binder	readout_unit	experimental_value
TCN-544 (5082_A19) (antibody, V domains shown) VH: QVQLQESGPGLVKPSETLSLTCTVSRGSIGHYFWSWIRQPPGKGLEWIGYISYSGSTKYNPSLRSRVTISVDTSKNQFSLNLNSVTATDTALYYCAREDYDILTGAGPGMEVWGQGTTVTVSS VL: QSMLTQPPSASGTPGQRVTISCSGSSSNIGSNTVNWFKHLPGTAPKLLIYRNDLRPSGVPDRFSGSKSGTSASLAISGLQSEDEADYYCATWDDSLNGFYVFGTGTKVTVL	RLU	281

For TCN-546 (5089_L08) (antibody, V domains shown) VH: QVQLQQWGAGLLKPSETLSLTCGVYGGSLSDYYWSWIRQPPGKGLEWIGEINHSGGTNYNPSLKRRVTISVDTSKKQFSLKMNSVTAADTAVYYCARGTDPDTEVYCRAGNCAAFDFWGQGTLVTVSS VL: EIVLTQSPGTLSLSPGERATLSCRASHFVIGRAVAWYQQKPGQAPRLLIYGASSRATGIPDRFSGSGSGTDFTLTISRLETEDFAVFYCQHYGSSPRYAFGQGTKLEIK , what is its reported Trimeric HA Binding: RLU? 350
